measured on: Neuronal acetylcholine receptor; alpha4/beta2 (Rattus norvegicus, UniProt P09483+P12390)
Sequence (P09483 whole entry): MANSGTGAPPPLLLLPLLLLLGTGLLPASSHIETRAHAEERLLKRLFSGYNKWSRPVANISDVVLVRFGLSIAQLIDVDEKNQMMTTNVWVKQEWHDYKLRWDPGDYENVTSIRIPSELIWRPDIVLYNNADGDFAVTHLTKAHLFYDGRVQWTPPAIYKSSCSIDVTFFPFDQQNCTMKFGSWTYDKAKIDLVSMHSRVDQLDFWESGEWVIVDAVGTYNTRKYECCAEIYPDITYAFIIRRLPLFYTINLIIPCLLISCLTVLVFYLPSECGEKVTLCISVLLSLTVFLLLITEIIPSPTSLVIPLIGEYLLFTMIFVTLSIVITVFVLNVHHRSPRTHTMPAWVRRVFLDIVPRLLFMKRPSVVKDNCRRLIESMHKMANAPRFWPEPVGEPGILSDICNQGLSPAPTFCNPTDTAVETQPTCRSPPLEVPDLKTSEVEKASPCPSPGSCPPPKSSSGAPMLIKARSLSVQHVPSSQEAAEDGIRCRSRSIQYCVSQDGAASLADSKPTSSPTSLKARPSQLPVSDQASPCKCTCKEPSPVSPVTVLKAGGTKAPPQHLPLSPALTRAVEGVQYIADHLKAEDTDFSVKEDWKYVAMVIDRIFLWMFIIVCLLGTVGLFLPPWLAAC
Sequence (P12390 whole entry): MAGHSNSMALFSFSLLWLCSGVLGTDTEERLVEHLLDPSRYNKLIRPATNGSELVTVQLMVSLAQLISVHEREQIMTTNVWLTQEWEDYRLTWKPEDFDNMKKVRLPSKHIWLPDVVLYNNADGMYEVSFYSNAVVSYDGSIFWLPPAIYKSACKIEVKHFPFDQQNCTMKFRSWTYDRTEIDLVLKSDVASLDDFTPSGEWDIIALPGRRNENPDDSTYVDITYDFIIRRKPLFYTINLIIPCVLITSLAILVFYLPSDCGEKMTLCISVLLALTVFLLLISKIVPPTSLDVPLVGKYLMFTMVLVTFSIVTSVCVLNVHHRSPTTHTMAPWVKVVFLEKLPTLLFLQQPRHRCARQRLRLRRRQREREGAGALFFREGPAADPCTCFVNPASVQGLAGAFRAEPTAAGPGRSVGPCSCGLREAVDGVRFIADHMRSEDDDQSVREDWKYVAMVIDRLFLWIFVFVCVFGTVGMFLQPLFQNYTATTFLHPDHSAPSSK
assay details: Displacement of [3H]epibatidine from rat alpha4beta2 nAChR transfected in HEK293 cells after 2 hrs by beta-plate counting analysis
recorded metric: pKi
Give bare numbers, as −log10 of the molar value.

Study these solved cases before continuing.
N=C1N(CCCC[C@H]2CN=C(N)N2CCc2ccc(Cl)c(Cl)c2)C[C@H](Cc2ccc3ccccc3c2)N1CCc1cccc(Br)c1 ... 4.36
CCCCCCCN1C(N)=NC[C@@H]1CCCCN1C[C@@H](CC2CCCCC2)N(CC2CCC(C(C)(C)C)CC2)C1=N (some centres not stated) ... 5.41
N=C1N(CCCC[C@H]2CN=C(N)N2CCc2ccc(Cl)c(Cl)c2)C[C@@H](Cc2ccc3ccccc3c2)N1CCc1ccc(Br)cc1 ... 5.60
CCCCCCCN1C(N)=NC[C@@H]1CCCCN1C[C@@H](Cc2ccccc2)N(CC2CCC(C(C)(C)C)CC2)C1=N (some centres not stated) ... 5.57
CCCCCCCN1C(=N)NC[C@@H]1CCCCN1C[C@@H](Cc2ccccc2)N(CCc2cccc(Br)c2)C1=N ... 5.60

Give pKi for each listed item.
1. N=C1N(CCCC[C@H]2CN=C(N)N2CCc2ccc(Cl)c(Cl)c2)C[C@H](Cc2ccc3ccccc3c2)N1CCc1ccc(Cl)c(Cl)c1
2. CC(C)(C)C1CCC(CN2C(=N)N(CCCC[C@H]3CN=C(N)N3CCc3cccnc3)C[C@H]2CC2CCCCC2)CC1 (some centres not stated)

3.74
6.47

These data points were gathered from ChEMBL document CHEMBL3108759.
